System: KB-3-1
Experiment: Cytotoxic Profiling of Annotated Libraries Using Quantitative High-Throughput Screening (AID 1296008); further: nearly all actives have a fitted effect of over 60% in size
Conditions: Five cell lines viability, CellTiter-Glo ATP luminescence, 48-72 h
Records with an inconclusive call do not appear. Activity calls are given as the source filed them. The call rests on the fitted dose curve; in most records, active means well fitted inhibition curve with a large enough effect; inconclusive means small, poorly fitted or top-dose-only effect; inactive means flat fitted curve, though single readings scatter.
Labels: active, inactive

{"Compound": "CN1CCN(c2ccc3nc(-c4c(N)c5c(F)cccc5[nH]c4=O)[nH]c3c2)CC1", "Assigned Label": "active"}
{"Compound": "C[C@@]12O[C@@H](C[C@]1(O)CO)n1c3ccccc3c3c4c(c5c6ccccc6n2c5c31)CNC4=O", "Assigned Label": "active"}
{"Compound": "CCCn1c(=O)c2[nH]c(-c3cnn(Cc4cccc(C(F)(F)F)c4)c3)nc2n(CC)c1=O", "Assigned Label": "inactive"}
{"Compound": "CN1c2cc(O)c(N=NC(N)=O)cc2CC1S(=O)(=O)O (centres undefined)", "Assigned Label": "inactive"}
